The measurements presented in this section are drawn from paper PMC5540273.

# Test system: ANKK1
# condition: concentration: 1 μM, replicates: in singlicate; n = 1;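 also: KINOMEscan kinase panel screen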
Quick rule for you: %Inh at 6% or higher means T, lower means F.

>>> assigned_label("COc1cccc(NC(=O)NC2CCN(c3ccnc(Nc4ccc(F)cc4)n3)C2)c1 (stereo not shown)")
"F"
>>> assigned_label("Cc1cccc(-c2nc(C)cc(Nc3ccncc3)n2)n1")
"F"
>>> assigned_label("Cc1csc(-c2nc(Nc3ccncc3)c3ccccc3n2)n1")
"T"
>>> assigned_label("Cc1nnc(-c2ccc3occ(-c4ccc(S(C)=O)cc4)c3c2)[nH]1 (stereo not shown)")
"T"
>>> assigned_label("CCn1c(-c2ccccn2)nc2cnccc21")
"F"
>>> assigned_label("C[C@@H]1CCCCN1c1cc(-c2ccc3c(N)n[nH]c3c2)nc(N)n1")
"T"
>>> assigned_label("CCn1c(-c2cccnc2O)nc2cnccc21")
"F"
>>> assigned_label("Cn1ccc2ncnc(Oc3cccc(C(=O)Nc4ccccc4)c3)c21")
"T"
>>> assigned_label("Cc1ccccc1-n1cnc2c(N)ncnc21")
"F"
>>> assigned_label("CN1C(=O)C(Nc2ccc(Cl)c(C(=O)O)c2)=C(c2ccc(Cl)cc2)C1=O")
"F"
>>> assigned_label("Clc1cc(Cl)cc(Nc2ccnc(Nc3cc(Cl)cc(Cl)c3)n2)c1")
"T"

###

As shown below, each of these compounds has a reported %Inh value.
# Tested on: MYLK4
# condition: concentration: 1 μM, replicates: in singlicate; n = 1
measured.quantity: %Inh

>>> result("COc1ccccc1-c1ccc2c(NC(=O)C3CC3)n[nH]c2n1")
"0%"
>>> result("CCn1c(-c2ccccn2)nc2cnccc21")
"2%"
>>> result("Cn1ccc2ncnc(Oc3ccc(Nc4nc5ccccc5[nH]4)cc3)c21")
"0%"
>>> result("Cc1ccc(C(=O)Nc2ccc(Nc3ccnc4cc(-c5ccccn5)ccc34)cc2O)cc1.Cl")
"0%"
>>> result("CC1=C(C(=O)Nc2cc3cn[nH]c3cc2F)C(c2ccc(C(F)(F)F)cc2)CC(=O)N1 (stereo not drawn)")
"0%"
>>> result("COc1cccc(-c2cc(-c3c[nH]nc3-c3ccccn3)ccn2)c1")
"9%"
>>> result("COc1cccc(NC(=O)NC2CCN(c3ccnc(Nc4ccc(F)cc4)n3)C2)c1 (stereo not drawn)")
"6%"
>>> result("O=C1NC(=O)C(N2CCc3ccccc32)=C1c1ccccc1Cl")
"0%"
>>> result("COc1ccc(Nc2nccc(-c3cccc(NC(=O)c4cc5cc(F)ccc5[nH]4)c3)n2)cc1")
"11%"
>>> result("Cc1ccc(-c2cc(-c3c[nH]nc3-c3ccccn3)ccn2)cc1")
"13%"
>>> result("NC(=O)c1nnc2ccccc2c1N")
"78%"
>>> result("Nc1nc(-c2nccs2)c(-c2ccnc3ccccc23)s1")
"0%"
>>> result("Clc1cc(Cl)cc(Nc2ccnc(Nc3cc(Cl)cc(Cl)c3)n2)c1")
"13%"
>>> result("COc1cc2ncn(-c3cc(OCC4CCCO4)c(C(N)=O)s3)c2cc1OC (stereo not drawn)")
"81%"
>>> result("COC(=O)c1c(-c2ccccc2)c2cc(C(=O)O)ccc2c(=O)n1Cc1ccccc1")
"0%"
>>> result("Cc1ccc(NC(=O)Nc2cccc(Cl)c2)cc1-c1ccc(C(=O)Nc2ccncc2)cc1")
"13%"
>>> result("O=c1cc(N2CCOCC2)nc2n(Cc3cccc(Cl)c3Cl)ccn12")
"0%"
>>> result("Cl.NC(=O)c1cccc(Nc2nccc(Nc3ccc(Oc4cccc(Cl)c4)c(Cl)c3)n2)c1")
"14%"
>>> result("Cn1ccc2ncnc(Oc3cccc(C(=O)Nc4ccccc4)c3)c21")
"4%"
>>> result("C[C@@H]1CCCCN1c1cc(-c2ccc3c(N)n[nH]c3c2)nc(N)n1")
"0%"
>>> result("Nc1ncnc2[nH]c(-c3ccccc3)nc12")
"30%"
>>> result("Cc1cccc(-c2nc(Nc3ccc4[nH]ncc4c3)c3ccccc3n2)n1")
"32%"
>>> result("COc1ccc(Nc2nccc(NCCNC(=O)Nc3ccccc3F)n2)cc1")
"0%"
>>> result("Cc1c(Cn2ccn3c(=O)cc(N4CCOCC4)nc23)cccc1C(F)(F)F")
"0%"
>>> result("COc1ccc(C2=C(Nc3cccc(C(=O)O)c3)C(=O)NC2=O)cc1")
"0%"
>>> result("O=C(Nc1ccc2c(c1)OCO2)NC1CCN(c2ccnc(Nc3ccc(F)cc3)n2)C1 (stereo not drawn)")
"0%"
>>> result("CC(=O)Nc1nc2cnc(Nc3cc(NC(=O)c4cccc(CCC#N)c4)ccc3C)nc2s1")
"6%"

###

As shown below, each of these compounds has a reported %Inh value.
# Tested on: RIPK2
# condition: concentration: 1 μM, replicates: in singlicate; n = 1
measured.quantity: %Inh

>>> result("Cn1ccc2ncnc(Oc3ccc(NC(=O)Nc4ccccc4)cc3)c21")
"26%"
>>> result("O=C1NC(=O)C(N2CCc3ccccc32)=C1c1ccccc1Cl")
"10%"
>>> result("COc1ccc(Nc2nccc(NCCNC(=O)Nc3ccccc3F)n2)cc1")
"22%"
>>> result("NC(=O)c1nnc2ccccc2c1N")
"0%"
>>> result("COc1cccc(-c2cc(-c3c[nH]nc3-c3ccccn3)ccn2)c1")
"27%"
>>> result("Cc1cc(N2Cc3ccccc3C2)nc(Nc2ccc(S(=O)(=O)N3CCOCC3)cc2)n1.Cl")
"0%"
>>> result("Cn1ccc2ncnc(Oc3cccc(C(=O)Nc4ccccc4)c3)c21")
"15%"
>>> result("O=S(=O)(c1ccc(-c2ccnc3[nH]ccc23)cc1)N1CCCC1")
"5%"
>>> result("Fc1cc(Cl)ccc1Nc1ccnc2cc(I)ccc12")
"67%"
>>> result("COc1cccc(NC(=O)NC2CCN(c3ccnc(Nc4ccc(F)cc4)n3)C2)c1 (centres unmarked)")
"2%"
>>> result("C[C@@H]1CCCCN1c1cc(-c2ccc3c(N)n[nH]c3c2)nc(N)n1")
"11%"
>>> result("COc1ccccc1-c1ccc2c(NC(=O)C3CC3)n[nH]c2n1")
"33%"
>>> result("Cc1cccc(-c2nc(Nc3ccc4[nH]ncc4c3)c3ccccc3n2)n1")
"0%"
>>> result("Cc1cccc(-c2nc(C)cc(Nc3ccncc3)n2)n1")
"19%"
>>> result("Cc1ccc(NC(=O)Nc2cccc(Cl)c2)cc1-c1ccc(C(=O)Nc2ccncc2)cc1")
"6%"
>>> result("Cc1cc(NCC(c2ccccc2)c2ccccc2)nc(NCc2ccc(C(F)(F)F)cc2)n1")
"9%"
>>> result("CC(C)(C)c1ccc(C(=O)Nc2cn3cc(Cl)ccc3n2)cc1")
"5%"
>>> result("O=C(Nc1n[nH]c2nc(-c3nccs3)c(Br)cc12)C1CCCC1")
"4%"
>>> result("COc1cc2ncn(-c3cc(OCC4CCCO4)c(C(N)=O)s3)c2cc1OC (centres unmarked)")
"7%"
>>> result("Cc1cc(-c2ccc3c(c2)CC[C@@H](N[C@@H](C)c2ccccc2)C3)cnc1N.Cl")
"15%"
>>> result("COc1cc2ncnc(Nc3ccc4nc(-c5ccccc5)[nH]c4c3)c2cc1OC.Cl")
"27%"
>>> result("Cc1csc(-c2nc(Nc3ccncc3)c3ccccc3n2)n1")
"52%"
>>> result("O=C(Nc1n[nH]c2nc(-c3nccs3)c(Br)cc12)C1CC1")
"10%"

###

# System: MELK
# condition: concentration: 1 μM, replicates: in singlicate; n = 1
measured.quantity: %Inh (%)

>>> number("Fc1cccc(COc2nnc(-c3ccc4c(c3)CCO4)o2)c1")
19
>>> number("Clc1cc(Cl)cc(Nc2ccnc(Nc3cc(Cl)cc(Cl)c3)n2)c1")
8
>>> number("O=C1NC(=O)C(N2CCc3ccccc32)=C1c1ccccc1Cl")
12
>>> number("Cc1cccc(-c2nc(-c3ccc(S(C)(=O)=O)cc3)sc2-c2ccnc(NCCc3ccccc3)c2)c1")
0
>>> number("Cc1cc(NCC(c2ccccc2)c2ccccc2)nc(NCc2ccc(C(F)(F)F)cc2)n1")
0
>>> number("Cc1cccc(-c2cc(Nc3ccncc3)c3ccccc3n2)n1")
0
>>> number("CCCc1ccc(S(=O)(=O)NC2CCN(c3ccnc(Nc4ccc(F)cc4)n3)C2)cc1 (stereo not drawn)")
0
>>> number("Cc1cc(N2Cc3ccccc3C2)nc(Nc2ccc(S(=O)(=O)N3CCOCC3)cc2)n1.Cl")
0
>>> number("Cc1ccc(C(=O)Nc2ccc(Nc3ccnc4cc(-c5ccccn5)ccc34)cc2O)cc1.Cl")
0
>>> number("CC(C)(C)c1ccc(C(=O)Nc2cn3cc(-c4cccnc4)ccc3n2)cc1")
33
>>> number("COc1cc2ncn(-c3cc(OCC4CCCO4)c(C(N)=O)s3)c2cc1OC (stereo not drawn)")
0
>>> number("O=c1cc(N2CCOCC2)nc2n(Cc3cccc(Cl)c3Cl)ccn12")
0
>>> number("Cn1cncc1-c1ccc2ncnc(Nc3ccc(OCc4ccccc4)cc3)c2c1")
15
>>> number("CN1C(=O)C(Nc2ccc(Cl)c(C(=O)O)c2)=C(c2ccc(Cl)cc2)C1=O")
4
>>> number("CS(=O)(=O)c1ccc(-c2nc3n(c2-c2ccncc2)CCC3)cc1")
0
>>> number("Fc1cc(Cl)ccc1Nc1ccnc2cc(I)ccc12")
16
>>> number("COc1ccc2nc(-c3cccc(C)n3)nc(Nc3ccncc3)c2c1")
0
>>> number("NC(=O)c1nnc2ccccc2c1N")
9
>>> number("O=C(Nc1n[nH]c2nc(-c3nccs3)c(Br)cc12)C1CCCC1")
0
>>> number("Cc1cc(-c2ccc3c(c2)CC[C@@H](N[C@@H](C)c2ccccc2)C3)cnc1N.Cl")
36
>>> number("COc1cc2nccc(Nc3ccc(NC(=O)c4ccc(C)cc4)c(O)c3)c2cc1OC.Cl")
0
>>> number("Cl.Oc1ccc(-c2nc(-c3ccccc3)[nH]c2-c2ccncc2)cc1")
2
>>> number("COc1cccc(-c2cc(-c3c[nH]nc3-c3ccccn3)ccn2)c1")
19
>>> number("CCn1c(-c2cccnc2O)nc2cnccc21")
1
